- ASSAY COMMENT: Plasma protein binding in human
QUANTITY KIND: fraction unbound

{"MOLECULE": "CCOP(=O)(CC)c1ccc2oc(-c3ccc(F)cc3)nc2c1 (centres undefined)", "QUANTITY KIND": "fraction unbound", "MEASURED VALUE": 0.08}

A = CCP(=O)(OC)c1ccc2nc(-c3cnc4ccccc4c3)oc2c1 (centres undefined)
B = CCP(=O)(O)c1ccc2oc(-c3cccc(C(F)(F)F)c3)nc2c1
C = COP(=O)(c1ccc2nc(-c3ccc(F)cc3)oc2c1)C(C)C (centres undefined)
// query Could you please sort these 3 entries by fraction unbound from high to low? Respond with an ordered listing of the labels, as requested.
// result A, C, B
